Recorded growth inhibition for the following molecules
experiment: NCI Yeast Anticancer Drug Screen. Data for the cln2 rad14 strain (AID 165);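 further: 0% = growth equal to vehicle treated cultures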; conditions: S. cerevisiae cln2 rad14 strain, at 50.0 µM, hits give high values
The panel holds about 79,000 compounds, 15% with a hit somewhere; the sample as a whole holds those more often.
Write down the numeric answer in % and omit the unit.

molecule: C[n+]1ccccc1-c1ccc[n+](CCCCC[n+]2cccc(-c3cccc[n+]3C)c2)c1
unit name: %
measured result: -22.4
//
molecule: NS(=O)(=O)c1cc(N(CCCl)CCCl)c([N+](=O)[O-])cc1[N+](=O)[O-]
unit name: %
measured result: 2.1
//
molecule: CC(=O)C(N)Cc1ccccc1 (stereo not drawn)
unit name: %
measured result: -26.6
//
molecule: Cn1c(=O)oc(=O)c2ccccc21
unit name: %
measured result: -3.1
//
molecule: O=C(Nc1cc(Cl)c(Cl)cc1Cl)C(=O)C1C(=O)NC(=S)NC1=O
unit name: %
measured result: 9.75

// field: growth inhibition; key: C1CC[N-]CC1.C1CC[N-]CC1.[Cl][Pt+2]([Cl])([Cl])[Cl] ; value = -48.9

Reported growth inhibition of c1ccc(P2c3ccccc3Oc3ccccc32)cc1 : 42.6

Item: CC(C)OP(=O)(OC(C)C)C(=O)Nc1ccc(Cl)cc1 | growth inhibition: -29.9

* * *

test: NCI Yeast Anticancer Drug Screen. Data for the mec2-1 strain (AID 157); conditions: S. cerevisiae mec2-1 strain, at 50.0 µM
The panel holds about 79,000 compounds, 15% with a hit somewhere; the sample as a whole holds those more often. The source made the active and inactive calls. Cut-off read from the data, not from the text of the source: active = growth inhibition above about 70%; inactive = the rest.
// classify into yes (1) for active, no (0) for inactive

Here are 5 compounds together with their reported answers.
compound: COc1ccc(C(O)(C(=O)O)c2ccc(OC)c(OC)c2)cc1OC
category label: no (0)

compound: O=S(=O)(c1ccccc1)c1ccccc1
category label: no (0)

compound: C[C@]12CC[C@H]3[C@@H](CC[C@]4(O)C[C@@H](O)CC[C@]34CO)[C@@]1(O)CC[C@@H]2C1=CC(=O)OC1
category label: no (0)

compound: COC(=O)c1ccccc1N
category label: no (0)

compound: S=P(NCc1cccc(CNP(=S)(N2CC2)N2CC2)c1)(N1CC1)N1CC1
category label: no (0)

Request: Please indicate how the test categorized CC12CC/C(=C3/C=CC(=O)S3)C=C1CCC1C2CCC2(C)C(O)CCC12 (configuration not stated) .
Response: no (0)

Request: Which result was noted for this compound in the test: COc1ccc(CCN)c(OC)c1
Response: no (0)

Request: Hi, do you know how CCC(CC)CNC(=O)C(Cl)Cl came out in this test?
Response: no (0)

Request: Short answer needed: outcome of this test for N#CCO ?
Response: no (0)

Request: Assay outcome for CC(C)(C)OP(O)(=S)OC(C)(C)C : what was it?
Response: no (0)

Request: Give the logged outcome of this assay for the following compound: CC1(C)N=C(N/N=C/c2ccccc2)SP1(=O)NNc1ncccn1 (configuration not stated)
Response: no (0)

Request: Record request — test call for CN1CCC(O)(c2ccc(Br)cc2)C(C(=O)c2ccc(Br)cc2)C1 (configuration not stated)
Response: no (0)

Request: Recorded call for CCCCOP(=O)(Nc1ccc(Cl)cc1)OCCCC ?
Response: yes (1)

* * *

Measured growth inhibition accompanies every entry in the list below.
test: NCI Yeast Anticancer Drug Screen. Data for the mec2-1 strain (AID 157); conditions: S. cerevisiae mec2-1 strain, at 50.0 µM, hits give high values
This is part of a sample that, as a whole, favours compounds with a hit. Of some 79,000 tested, about 15% had one in any assay.
Report the figure in % without appending any unit label.

molecule: Oc1c(Cl)cccc1Cl
growth inhibition / %: -51.9
--
molecule: CC1(C)N=C(N)N=C(N)N1c1ccc(CCC(=O)Nc2cccc(S(=O)(=O)F)c2)c(Cl)c1
growth inhibition / %: 82.4
--
molecule: NC(=O)OC(CCl)CCl
growth inhibition / %: -10.1
--
molecule: CCOP(N)(=O)SC (stereo not given)
growth inhibition / %: 8

response.value for CCN(CC)CC(O)c1ccc(Br)cc1 (stereo not given) (field: growth inhibition) = -20.1

* * *

Quick reference for growth inhibition among some compounds
experiment: NCI Yeast Anticancer Drug Screen. Data for the cln2 rad14 strain (AID 165);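 further: 0% = growth equal to vehicle treated cultures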; details: S. cerevisiae cln2 rad14 strain, at 50.0 µM, hits give high values
This is part of a sample that, as a whole, favours compounds with a hit. Of some 79,000 tested, about 15% had one in any assay.
Form entry: value (%) — number only.

Please review the following examples before continuing.
compound: COc1ccc(C)cc1C(=O)C[n+]1ccc2ccccc2c1
unit name: %
measured result: -21.4
//
compound: CC1(C)C(=O)CC[C@@]2(C)C1=CC[C@@H]1[C@@H]2CC[C@@]2(C)[C@H]1CC[C@]2(C)O
unit name: %
measured result: -21
//
compound: C/C=C1/CN2CCC1CC2C(O)c1ccnc2ccc(OCCO)cc12 (configuration not stated)
unit name: %
measured result: -9.35
//
compound: CN(C)Cc1c[nH]c2ccc(F)cc12
unit name: %
measured result: 5.65
//
compound: CC(=O)N(N=O)c1cc(Cl)ccc1Cl
unit name: %
measured result: -2.15
//
compound: O=C1C2CC(CN3CCCCC23)C2CCCCN12 (configuration not stated)
unit name: %
measured result: 8.35

Sure, the documented growth inhibition for CN(C)C(=O)Oc1ccc(C2CCCN2C)cn1 (configuration not stated) is -13.1

* * *

Assay: NCI Yeast Anticancer Drug Screen. Data for the bub3 strain (AID 167)
Details: S. cerevisiae bub3 mutant strain, at 50.0 µM
Protocol: Growth inhibition of yeast strains with defined genetic alterations is measured as a screen for potential anti-cancer activity. Selected strains with alterations in DNA damage repair or cell cycle control were exposed to compounds and growth inhibition was measured relative to vehicle treated controls. The strain used in this assay is bub3
The panel holds about 79,000 compounds, 15% with a hit somewhere; the sample as a whole holds those more often. Active and inactive are the calls of the source. No stated cut-off is given here; in the data, active means growth inhibition above about 70%; inactive means the rest.
The categories you may choose from are active, inactive

molecule: COc1ccccc1CCN
category label: inactive

molecule: CCOC(=O)/C(C#N)=C(/SC)N1CC1
category label: inactive

molecule: CC1(C)OC2(C)CCC1C1C2N1C(=O)c1ccccc1 (configuration not stated)
category label: inactive

Request: Given [Cl][Hg][c]1ccccc1N=Nc1ccccc1 , state the outcome it received in this test.
Response: active

Request: Outcome? CC(C)OP(=O)(OC(C)C)C(N(C)C)P(=O)(OC(C)C)OC(C)C.[Cl][Sn]([Cl])([Cl])[c]1ccccc1
Response: inactive

Request: Dear colleague, could you share the recorded outcome for O=C1NC(=O)C(=Cc2ccco2)C(=O)N1 when you have a moment?
Response: inactive

Request: Call for entry O=NN(Cc1ccccc1)Cc1ccccc1 :
Response: inactive

Request: # fetch the recorded call for O[C@H]1[C@H](O)[C@@H](O)CN2CC[C@H](O)[C@H]12 here
Response: inactive

Request: Outcome? C(=C\C1CC2CCCN2O1)/c1ccccc1 (configuration not stated)
Response: inactive

Request: Which result was noted for this molecule in the test: Oc1ccccc1C=NCCN=Cc1ccccc1O.[Cu]
Response: inactive

Request: State the result this test recorded for CN(C)P(=O)(CC(O)c1ccccc1)N(C)C (configuration not stated) .
Response: inactive

Request: For C[N+]1(C)C2CC(O)CC1C1OC12 (configuration not stated) , what call appears in the results of this test?
Response: inactive

Request: Given CC(=O)CCC(=O)O.[Ni] , state the outcome it received in this test.
Response: inactive

Request: Call for entry O=C(O)/C=C/c1ccc(S(=O)(=O)F)cc1 :
Response: inactive

* * *

Assay: NCI Yeast Anticancer Drug Screen. Data for the mec2-1 strain (AID 157)
Conditions: S. cerevisiae mec2-1 strain, at 50.0 µM
Protocol: Growth inhibition of yeast strains with defined genetic alterations is measured as a screen for potential anti-cancer activity. Selected strains with alterations in DNA damage repair or cell cycle control were exposed to compounds and growth inhibition was measured relative to vehicle treated controls. The strain used in this assay is mec2-1
About 79,000 compounds went through this panel and 15% of them were active in at least one assay; those are over-represented in the sample as a whole. Active and inactive are the calls of the source. Cut-off read from the data, not from the text of the source: active = growth inhibition above about 70%; inactive = the rest.
Hi! Could you answer with just one of these? active, inactive

Reference set (10 entries):
compound: CC(C)[C@]12O[C@H]1[C@@H]1O[C@]13[C@]1(O[C@H]1C[C@H]1C4=C(C(=O)OC4)[C@@H](O)C[C@@]13C)[C@@H]2O
category label: inactive
//
compound: COc1ccc2c(c1)CC(CN1CCC3(CC1)C(=O)N(C)CN3c1ccccc1)O2 (stereo not drawn)
category label: inactive
//
compound: COc1ccc2c(c1)CC1N(C)CCC13CCCCC23 (stereo not drawn)
category label: inactive
//
compound: Nc1ccc(S(=O)(=O)F)cc1
category label: inactive
//
compound: O=C1NC(=O)C(C(=O)C(=O)Nc2cccc(C(F)(F)F)c2)C(=O)N1
category label: inactive
//
compound: COc1cc(C2c3cc4c(cc3[C@@H](OC)[C@H]3COC(=O)C23)OCO4)cc(OC)c1O (stereo partly drawn)
category label: active
//
compound: Oc1ccccc1C=NCCN=Cc1ccccc1O.[Fe]
category label: inactive
//
compound: CCC[CH2][Sn]([Cl])([Cl])[CH2]CCC.c1ccncc1
category label: active
//
compound: Cn1cnc([N+](=O)[O-])c1C(=O)O (tested in a mixture with another compound)
category label: inactive
//
compound: COC1C(OC(=O)c2ccc(C)[nH]2)C(O)C(Oc2ccc3c(O)c(NC(=O)c4ccc(O)c(CC=C(C)C)c4)c(=O)oc3c2Cl)OC1(C)C (stereo not drawn)
category label: inactive

Request: Per the records of this test, what outcome belongs to CCOP1(=O)C=C(C)C(Cl)=C(C)C1 (stereo not drawn) ?
Response: inactive

Request: Look up the recorded call for [Cl][Rh]([Cl])([Cl])[Cl].[NH-]CC[NH-] in this test.
Response: inactive

Request: Name the outcome recorded for O=C(O)CP(=S)(S)c1ccccc1 (stereo not drawn) in the assay.
Response: inactive
